B1: NF2 (merlin) isoform 7, human, full length (507 aa, lacks exons 2-3 = isoform-1 residues 39-121; exon-16 C-terminus), P35240-4 (parent)
chain: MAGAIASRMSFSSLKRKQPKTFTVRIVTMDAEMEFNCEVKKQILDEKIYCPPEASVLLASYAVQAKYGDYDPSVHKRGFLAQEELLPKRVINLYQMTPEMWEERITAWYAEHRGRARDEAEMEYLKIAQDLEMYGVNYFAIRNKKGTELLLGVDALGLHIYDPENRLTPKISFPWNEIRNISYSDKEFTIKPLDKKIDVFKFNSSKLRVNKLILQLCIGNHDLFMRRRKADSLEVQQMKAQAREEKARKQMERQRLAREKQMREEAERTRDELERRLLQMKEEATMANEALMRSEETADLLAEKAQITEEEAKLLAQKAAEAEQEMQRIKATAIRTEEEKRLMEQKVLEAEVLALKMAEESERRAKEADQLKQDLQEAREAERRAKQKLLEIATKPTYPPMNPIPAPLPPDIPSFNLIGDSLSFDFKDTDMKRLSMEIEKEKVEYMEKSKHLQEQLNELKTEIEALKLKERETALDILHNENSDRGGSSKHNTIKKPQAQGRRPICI

- Variants of: B1
- ASSAY_TEXT: reverse yeast two-hybrid deep mutational scan (rY2H-seq): NF2 isoform 7 mutant library as bait mated with wild-type prey strains; selection on medium lacking adenine for non-interacting pairs; NextSeq paired-end sequencing; enrichment vs …
- PROTOCOL_CONDITIONS: with PIK3R3 (phosphatidylinositol 3-kinase regulatory subunit gamma), Q92569; yeast diploids after mating (RBait_S3 x RPrey_S3), 30 °C, selection for reporter genes on NB agar; human tyrosine kinase ABL2 co-expressed as the active kinase …; HIGHER = WEAKER BINDING (the opposite of display enrichments): higher = stronger loss of interaction: reverse Y2H selects yeast in which bait and prey do NOT interact (growth without adenine), so a …; hits-only table; scale: rY2H score; numbering: uniprot, sequence starts at 1
Kindly return t if reported enrichment is no lower than 3; return f if it is lower.

stdin: Textbook exercise: given the entry L371A , state whether its enrichment is greater than or equal to 3.
stdout: f

stdin: Textbook exercise: given the entry K388A , state whether its enrichment is greater than or equal to 3.
stdout: t

stdin: Textbook exercise: given the entry K170R , state whether its enrichment is greater than or equal to 3.
stdout: f

stdin: Textbook exercise: given the entry E164A , state whether its enrichment is greater than or equal to 3.
stdout: t

stdin: Textbook exercise: given the entry G114A , state whether its enrichment is greater than or equal to 3.
stdout: t

stdin: Textbook exercise: given the entry R113C , state whether its enrichment is greater than or equal to 3.
stdout: t

stdin: Textbook exercise: given the entry G157K , state whether its enrichment is greater than or equal to 3.
stdout: t

stdin: Textbook exercise: given the entry T297L , state whether its enrichment is greater than or equal to 3.
stdout: f

stdin: Textbook exercise: given the entry L14P , state whether its enrichment is greater than or equal to 3.
stdout: t
